- Tested on: HTLV-III/LAV
- Test details: Inhibition of reverse transcriptase activity in culture medium of HTLV-III/LAV infected H9 cells
- Type: cell-based
- Experimental parameters: reverse transcriptase in the culture medium on day 10 post infection 50% that in drug-free control cultures, read-out: RT** 50% Inhibitory Concentrations
Quantity: IC50

INSERT INTO assay_data (cpd_smiles, recorded_value) VALUES
  ('Nc1ncnc2c1ncn2[C@@H]1O[C@H](COP(=O)(O)O)[C@@H](O)[C@@H]1O', '11 µM');
